The measured values listed here are drawn from the supplement of paper PMC11061612.

Overview of recorded combination Emax for various compounds
- System: CHSA8926 (Chondrosarcoma)
- Method: combination Emax (second highest fraction inhibited in the dose matrix, 72 h); higher = more inhibition; extreme values may be limits of the assay

Compound | combination Emax
Cc1c2c(nn1C)CSCc1cc(n(C)n1)CSc1cc(c3ccccc3c1)OCCCc1c(C(=O)O)n(C)c3c-2c(Cl)ccc13 [AZD5991] + CN(C)CCCOc1ccc(-c2ccc3ncc4c(c3c2)n(C2CCOCC2)c(=O)n4C)cn1 [AZD0156] (first compound max 1 µM, 7x7, partner max 1 µM) | 0.497
COc1cccc(OCCCN)c1-c1cc(Nc2cnc(C#N)cn2)n[nH]1 [Prexasertib] + CN(C)CCCOc1ccc(-c2ccc3ncc4c(c3c2)n(C2CCOCC2)c(=O)n4C)cn1 [AZD0156] (first compound max 1 µM, 7x7, partner max 1 µM) | 0.288
